Where do the numbers come from? From PubChem BioAssay (NCI).

Test system: CAKI-1 renal
Assay notes: NCI tumour cell line growth inhibition, 48 h
Readout type: TGI

Sample answers from the record:
>>> result("CC1OC(OCC2COC(O)(Oc3c(-c4ccc(O)c(O)c4)oc4cc(O)cc(O)c4c3=O)C(O)C2O)C(O)C(O)C1O (stereo unspecified)")
"> 100 µM"
>>> result("CCC(C)C(NC(=O)C1CCCN1C(=O)C(NC(=O)C(C)N)C(C)C)C(N)=O (stereo unspecified)")
"> 100 µM"
>>> result("OCC12C3C4C1C1C2C3C41CO (stereo unspecified)")
"> 100 µM"
>>> result("CCOC(=O)[C@@]12CCC(C1=O)[C@](C)(O)C[C@@H]2c1ccccc1")
"> 100 µM"
>>> result("CN(C)c1nc(-c2ccccc2)c(C(=O)c2c[nH]c3ccccc23)s1")
"> 100 µM"
>>> result("COc1ccc2c(c1)OC[C@@H]1c3cc4c(cc3O[C@H]21)OCO4")
"> 100 µM"
>>> result("Nc1ccn(C2CC(CO)C(O)C2O)c(=O)n1 (stereo unspecified)")
"> 57.7 µM"
>>> result("COc1ccc(/C=C/c2n[nH]c3ccc(N4CCOC4=O)cc23)cc1")
"> 100 µM"

# input Let me know recorded TGI for `O=C(/C=C\c1ccc(Cl)cc1Cl)c1cccs1` , thanks.
# output 80.4 µM

# input Annotate the compound Cc1ccc(S(=O)(=O)OC2C(C3COC(C)(C)O3)OC3OC(C)(C)OC32)cc1 (stereo unspecified) with its measured TGI.
# output > 100 µM

# input Identify the reported TGI for the following entry. `c1cncc(-c2ncc3cccnc3n2)c1`
# output > 100 µM

* * *

Tested on: HL-60(TB) leukemia
Assay notes: NCI tumour cell line growth inhibition, 48 h
// label = met if TGI is not less than 40 µM, otherwise not met

# input Is reported TGI greater than or equal to 40 µM here: `CCOC(=O)[C@@]12CCC(C1=O)[C@](C)(O)C[C@@H]2c1ccccc1`
# output met

# input Would you say CN(C)c1ccc(/C=C(\NC(=O)c2ccccc2)C(=O)NC(CCC(=O)O)C(=O)O)cc1 (stereo unspecified) shows TGI at minimum 40 µM?
# output met

# input Test whether the compound `CCCc1nc2c(C)cc(-c3nc4ccccc4n3C)cc2n1Cc1ccc(-c2ccccc2C(=O)O)cc1` records TGI of 40 µM or higher.
# output met

# input Hi team, for Cc1cc(Cl)cc2c1NC(=O)C2(O)C(C)C(=O)c1ccc(Cl)cc1 (stereo unspecified) , is the recorded TGI at or above 40 µM?
# output met

# input Please check the record `CN(CCCCN(C)CCc1ccc(Cl)c(Cl)c1)CCCCN1CCCC1` and state if its TGI is at or above 40 µM.
# output not met

* * *

Test system: A549 NSCLC
Assay notes: NCI tumour cell line growth inhibition, 48 h
# TGI per entry

>>> result("CCCc1nc2c(C)cc(-c3nc4ccccc4n3C)cc2n1Cc1ccc(-c2ccccc2C(=O)O)cc1")
"> 100 µM"

# input Indicate its recorded TGI; the compound in question is `O=c1[nH]nc(Cc2ccc(Cl)cc2)n1/N=C\c1ccc(/C=N/n2c(Cc3ccc(Cl)cc3)n[nH]c2=O)cc1`
# output > 100 µM

# input Name the recorded TGI of the item `O=C(COc1ccccc1)NS(=O)(=O)c1ccccc1` in your answer.
# output > 100 µM

# input Kindly indicate its recorded TGI. Item: CN(C)c1ccc(/C=C(\NC(=O)c2ccccc2)C2NC(Cc3c[nH]c4ccccc34)C(=O)O2)cc1 (centres undefined)
# output > 100 µM

# input Check the records and state TGI for `COc1cc2c3c(n(CCCNCCCNCCCn4c5c(c6ccccc6c4=O)C(=O)c4ccccc4-5)c(=O)c2cc1OC)-c1cc2c(cc1C3=O)OCO2`
# output 2.3 µM

# input Find the measured TGI of `COc1ccc(-c2nc(-c3nc4ccc(OC)cc4[nH]3)cc3c2[nH]c2ccccc23)cc1` and report it.
# output > 100 µM

# input Please give measured TGI of the following entry: `O=[N+]([O-])O.[Ga]`
# output > 10000 µM

# input # return recorded TGI for input `O=C(/C=C\c1ccc(Cl)cc1Cl)c1cccs1`
# output > 100 µM

# input Provide one value: measured TGI of `COc1ccc([N+](=O)[O-])c(S(=O)(=O)c2ccc(Cl)cc2)n1`
# output 41.9 µM
